Test: ATG_ISRE_CIS: Attagene CIS-FACTORIAL HepG2 Assay for human Interferon Regulatory Factor 1 (IRF1) binding to an Interferon-Stimulated Response Element (ISRE) (AID 2282948)
Details: HepG2 ISRE cis-reporter (Attagene), mRNA transcription readout; actives raise or lower the signal
Experimental: ATG_CIS is a cell-based, multiplexed-readout assay that uses HepG2, a human liver cell line, with measurements taken at 24 hours after chemical dosing in a 24-well plate.ATG_ISRE_CIS is one of 52 assay component(s) measured or calculated from the ATG_CIS assay. […] This assay endpoint, ATG_ISRE_CIS, was analyzed with bidirectional fitting relative to DMSO as the negative control and baseline of activity. […]
Calls of active or inactive are those of the source. The calls were made as follows: active = hit-call score of the fitted dose curve at least 0.9, where 1 is the maximum; inactive = score below 0.9.
Output constraint: value belongs to active, inactive

Entry O=C(O)C(F)(OC(F)(F)C(F)(F)C(F)(F)F)C(F)(F)F (centres undefined) : call = ? inactive

Entry CCCCOCC1CO1 (centres undefined) : call = ? inactive

Entry `ClC(Cl)c1ccccc1` : call = ? inactive

Entry O=S1(=O)OCC2C(CO1)C1(Cl)C(Cl)=C(Cl)C2(Cl)C1(Cl)Cl (centres undefined) : call = ? active

Entry `Cc1ccc2c(c1N)C(=O)c1ccccc1C2=O` : call = ? inactive

Entry `Cc1ccc(C(=O)Cl)cc1` : call = ? inactive

Entry CC(Cc1ccc(OCC(=O)O)cc1)NCC(O)c1csc(C(F)(F)F)n1 (centres undefined) : call = ? inactive

Entry `O=C(CBr)OCc1ccccc1` : call = ? inactive

Entry `Nc1ccc([N+](=O)[O-])cc1Cl` : call = ? inactive

Entry `CC(=O)c1ccc(-c2ccccc2)cc1` : call = ? inactive

Entry `CCCCN(CC)C(=O)SCCC` : call = ? inactive

Entry `CC(=O)CCc1ccc2c(c1)OCO2` : call = ? inactive

Entry `O=[N+]([O-])c1cc(Cl)ccc1Cl` : call = ? inactive

Entry O=P1(N(CCCl)CCCl)NCCCO1 (centres undefined) : call = ? inactive

----------
Target: Estrogen receptor beta (Homo sapiens)
Experiment: OT_ER_ERbERb_0480: Odyssey Thera (OT) 8-hour HEK293T Protein-Complementation Assay for Estrogen Receptor-beta/-beta Homodimer (AID 2283357);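 also: active means signal gain over DMSO baseline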
Records with an inconclusive call do not appear. Activity calls are given as the source filed them. How the source made its calls: active means hit-call score of the fitted dose curve at least 0.9, where 1 is the maximum; inconclusive means response in the unintended direction; inactive means score below 0.9.
Output constraint: value belongs to TRUE = active, FALSE = inactive

Entry `COC(N)=O` : call = ? FALSE

Entry `CCC(C)(C)c1ccc(O)cc1` : call = ? TRUE

Entry `c1ccc(OP(Oc2ccccc2)Oc2ccccc2)cc1` : call = ? FALSE

Entry ClC1=C(Cl)C2(Cl)C3C(Cl)C(Cl)CC3C1(Cl)C2(Cl)Cl (stereo not drawn) : call = ? FALSE

Entry `CCCN(CCC)c1c([N+](=O)[O-])cc(C(C)C)cc1[N+](=O)[O-]` : call = ? FALSE

Entry `O=S(=O)(c1ccc(O)cc1)c1ccc(O)cc1` : call = ? TRUE

Entry `O=[N+]([O-])c1ccccc1` : call = ? FALSE

Entry CCCCC(CC)COC(=O)c1c(Br)c(Br)c(Br)c(Br)c1C(=O)OCC(CC)CCCC (stereo not drawn) : call = ? FALSE

Entry `Nc1cc2c3c(c1)C(c1ccccc1)=N[C@@H](NC(=O)c1cccnc1)C(=O)N3CC2` : call = ? FALSE

Entry O=S1(=O)OCC2C(CO1)C1(Cl)C(Cl)=C(Cl)C2(Cl)C1(Cl)Cl (stereo not drawn) : call = ? FALSE

Entry O=C(O)C1C(C(=O)O)C2(Cl)C(Cl)=C(Cl)C1(Cl)C2(Cl)Cl (stereo not drawn) : call = ? FALSE

Entry `CCN(CC)c1ccccc1` : call = ? FALSE

Entry `O=P(Oc1ccccc1)(Oc1ccccc1)Oc1ccccc1` : call = ? TRUE

Entry `Nc1ccc2ccccc2c1` : call = ? FALSE

Entry `CCOc1ccc(C(C)(C)COCc2cccc(Oc3ccccc3)c2)cc1` : call = ? FALSE

Entry `c1cc2c3c(cccc3c1)CC2` : call = ? FALSE

Entry `c1nc[nH]n1` : call = ? FALSE

Entry `CC(C)(C)N(NC(=O)c1ccc(Cl)cc1)C(=O)c1ccccc1` : call = ? FALSE

Entry CCOP(=S)(Oc1ccc([N+](=O)[O-])cc1)c1ccccc1 (stereo not drawn) : call = ? TRUE

Entry `CCNc1nc(Cl)nc(NC(C)(C)C)n1` : call = ? FALSE

Entry `Cc1ccc(N)cc1N` : call = ? FALSE

Entry `CC(Cl)(Cl)C(=O)O` : call = ? FALSE

Entry CCCCC(CC)COP(=O)(Oc1ccccc1)Oc1ccccc1 (stereo not drawn) : call = ? FALSE

Entry `FC(F)(F)c1ccc(Cl)cc1` : call = ? FALSE

Entry `CCCCN(CCCC)SN(C)C(=O)Oc1cccc2c1OC(C)(C)C2` : call = ? FALSE

Entry `O=C(O)CF` : call = ? FALSE

Entry `Cc1ccc(O)cc1C` : call = ? FALSE

Entry `Cc1ccc([N+](=O)[O-])cc1C` : call = ? FALSE

----------
Molecular target: Retinoic acid receptor RXR-alpha (Homo sapiens) (UniProt P19793)
Sequence (P19793 whole entry, looked up): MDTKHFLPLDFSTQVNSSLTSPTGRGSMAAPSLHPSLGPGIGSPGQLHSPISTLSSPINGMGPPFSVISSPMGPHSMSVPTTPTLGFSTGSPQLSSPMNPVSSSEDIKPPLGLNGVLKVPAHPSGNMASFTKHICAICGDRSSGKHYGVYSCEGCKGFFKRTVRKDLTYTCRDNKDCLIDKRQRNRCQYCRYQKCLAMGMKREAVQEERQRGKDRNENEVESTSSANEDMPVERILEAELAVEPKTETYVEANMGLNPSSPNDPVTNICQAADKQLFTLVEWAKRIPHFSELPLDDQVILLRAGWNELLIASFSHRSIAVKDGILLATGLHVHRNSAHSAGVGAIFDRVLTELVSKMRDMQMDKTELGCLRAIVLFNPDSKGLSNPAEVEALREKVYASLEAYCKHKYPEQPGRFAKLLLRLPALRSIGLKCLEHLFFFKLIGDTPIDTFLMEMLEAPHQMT
Assay: OT_NURR1_NURR1RXRa_1440: Odyssey Thera (OT) 24-hour HEK293T Protein Complementation Assay for Nurr1/retinoid X receptor (RXR) (AID 2283386)
Results filed as inconclusive are left out. Calls of active or inactive are those of the source. The calls were made as follows: active = hit-call score of the fitted dose curve at least 0.9, where 1 is the maximum; inconclusive = response in the unintended direction; inactive = score below 0.9.
Output constraint: value belongs to YES for active, NO for inactive

Entry `CC(C)(C)N(NC(=O)c1ccc(Cl)cc1)C(=O)c1ccccc1` : call = ? NO

Entry `c1ccc2c(c1)Nc1ccccc1S2` : call = ? NO

Entry CC(Cc1ccc(OCC(=O)O)cc1)NCC(O)c1csc(C(F)(F)F)n1 (centres undefined) : call = ? NO

Entry `CCCCc1ccccc1` : call = ? NO

Entry `CC(Cl)(Cl)C(=O)O` : call = ? NO

Entry OCC1CO1 (centres undefined) : call = ? NO

Entry `Cc1ccc(N)cc1N` : call = ? NO

Entry `O=C(O)C(Cl)Cl` : call = ? NO

Entry O=P(OCC(Br)CBr)(OCC(Br)CBr)OCC(Br)CBr (centres undefined) : call = ? YES

----------
Read-out: ABC Transporter (ABCC2), ABCC2 (gene 1244)
Test: LTEA_HepaRG_ABCC2: Life Technologies and Expression Analysis (LTEA) Assay for ABC Transporter (ABCC2) using HepaRG (AID 2283464)
Conditions: mRNA level, 48 h; actives raise or lower the signal
Calls of active or inactive are those of the source. The calls were made as follows: active = hit-call score of the fitted dose curve at least 0.9, where 1 is the maximum; inactive = score below 0.9.
Output constraint: value belongs to class 1 for active, class 0 for inactive

Entry `c1ccc2c(c1)Nc1ccccc1S2` : call = ? class 0

Entry `CCCCN(CCCC)SN(C)C(=O)Oc1cccc2c1OC(C)(C)C2` : call = ? class 0

Entry `Nc1ccc(Cl)cc1` : call = ? class 0

Entry `CCNc1nc(Cl)nc(NC(C)(C)C)n1` : call = ? class 1

Entry `CCOS(=O)(=O)OCC` : call = ? class 0

Entry `CC(C)(C)c1ccc(O)cc1` : call = ? class 0

Entry `CCC(C)(C)c1ccc(O)cc1` : call = ? class 0

Entry `CCCCc1ccccc1` : call = ? class 0

Entry `COCCOCCO` : call = ? class 0

Entry `O=[N+]([O-])c1ccc(Cl)c(Cl)c1` : call = ? class 0

Entry `O=P(Oc1ccccc1)(Oc1ccccc1)Oc1ccccc1` : call = ? class 1

Entry `Cc1ccc(O)cc1C` : call = ? class 0

Entry `c1cc2c3c(cccc3c1)CC2` : call = ? class 0

Entry `Cc1cccc(N)c1` : call = ? class 0

Entry `CCCN(CCC)c1c([N+](=O)[O-])cc(C(C)C)cc1[N+](=O)[O-]` : call = ? class 1

Entry `Cc1ccc([N+](=O)[O-])cc1C` : call = ? class 0

Entry `Nc1cc2c3c(c1)C(c1ccccc1)=N[C@@H](NC(=O)c1cccnc1)C(=O)N3CC2` : call = ? class 0

Entry `CC(Cl)(Cl)C(=O)O` : call = ? class 0

Entry `CC(C)(C)OOC(C)(C)C` : call = ? class 0

Entry O=P1(N(CCCl)CCCl)NCCCO1 (stereo not given) : call = ? class 0

----------
Read-out: Matrix Metallopeptidase 1 (MMP1), MMP1 (gene 4312)
Experiment: BSK_hDFCGF_MMP1: BioMAP Diversity Plus: hDFCGF Assay for Matrix Metallopeptidase 1 (MMP1) Biomarker Activity (AID 2283064)
Settings: primary human foreskin fibroblasts; actives raise or lower the signal
Active and inactive are the calls of the source. How the source made its calls: active means hit-call score of the fitted dose curve at least 0.9, where 1 is the maximum; inactive means score below 0.9.
Output constraint: value belongs to active, inactive

Entry `N#Cc1cc([N+](=O)[O-])ccc1N` : call = ? inactive

Entry `CCOC(=O)c1ccccc1C(=O)OCC` : call = ? inactive

Entry `O=S(=O)(F)C(F)(F)C(F)(F)C(F)(F)C(F)(F)C(F)(F)C(F)(F)C(F)(F)C(F)(F)F` : call = ? inactive

Entry O=C(O)C1C(C(=O)O)C2(Cl)C(Cl)=C(Cl)C1(Cl)C2(Cl)Cl (stereo unspecified) : call = ? inactive

Entry `CCOP(=S)(OCC)SCS(=O)(=O)CC` : call = ? inactive

Entry `Cc1ccc(O)cc1C` : call = ? inactive

Entry `CCOP(=S)(OCC)SCSCC` : call = ? inactive

Entry `COP(N)(=S)OC` : call = ? inactive

Entry `NC(=O)C(F)(F)C(F)(F)F` : call = ? inactive

Entry `CCC(C)(C)c1ccc(O)cc1` : call = ? inactive

Entry `O=P(Oc1ccccc1)(Oc1ccccc1)Oc1ccccc1` : call = ? inactive

Entry `c1nc[nH]n1` : call = ? inactive

Entry CC(Cc1ccc(OCC(=O)O)cc1)NCC(O)c1csc(C(F)(F)F)n1 (stereo unspecified) : call = ? inactive

Entry COC(=O)C(F)(F)C(F)(F)OC(F)(C(F)(F)F)C(F)(F)OC(F)=C(F)F (stereo unspecified) : call = ? inactive

Entry `CCCCOCCOP(=O)(OCCOCCCC)OCCOCCCC` : call = ? inactive

Entry `Cc1c([N+](=O)[O-])cc2c(c1[N+](=O)[O-])C(C)(C)CC2(C)C` : call = ? inactive

Entry `CCCCCCCc1ccc(O)cc1` : call = ? active

Entry O=C(O)C(F)(OC(F)(F)C(F)(F)C(F)(F)F)C(F)(F)F (stereo unspecified) : call = ? inactive

Entry `Nc1ccc(Cl)cc1` : call = ? inactive

Entry `CN(C)C(=O)Cl` : call = ? inactive

Entry CC(O)C(F)(F)C(F)(F)F (stereo unspecified) : call = ? inactive

Entry `O=[N+]([O-])c1ccc(Cl)c(Cl)c1` : call = ? inactive

Entry `c1ccc2c(c1)Nc1ccccc1S2` : call = ? inactive

Entry ClC1=C(Cl)C2(Cl)C3C(Cl)C(Cl)CC3C1(Cl)C2(Cl)Cl (stereo unspecified) : call = ? active

Entry CCCCC(CC)COP(=O)(Oc1ccccc1)Oc1ccccc1 (stereo unspecified) : call = ? active

Entry CCOP(=S)(Oc1ccc([N+](=O)[O-])cc1)c1ccccc1 (stereo unspecified) : call = ? inactive

Entry CC(Cl)CN(C)C (stereo unspecified) : call = ? inactive

Entry `CCOP(=S)(OCC)SCSc1ccc(Cl)cc1` : call = ? inactive

Entry `N#Cc1c(-c2ccc(Cl)cc2)[nH]c(C(F)(F)F)c1Br` : call = ? inactive

Entry `O=C(O)C(F)(F)OC(F)(F)C(F)(F)OC(F)(F)C(=O)O` : call = ? inactive

Entry CCC1(c2ccccc2)C(=O)N=C(O)NC1=O (stereo unspecified) : call = ? inactive

Entry `CC(C)(C)c1ccccc1OP(=O)(Oc1ccccc1)Oc1ccccc1` : call = ? inactive

Entry `c1cc2c3c(cccc3c1)CC2` : call = ? inactive

Entry `O=C(O)C(F)(F)OC(F)(F)C(F)(F)OC(F)(F)F` : call = ? inactive

Entry `CCN(CC)c1ccccc1` : call = ? inactive

Entry `c1ccc2c(c1)sc1ccccc12` : call = ? inactive

Entry `Nc1ccc2ccccc2c1` : call = ? inactive

Entry `CCCN(CCC)c1c([N+](=O)[O-])cc(C(C)C)cc1[N+](=O)[O-]` : call = ? inactive

Entry `Cc1ccc(N)cc1N` : call = ? inactive

Entry `COP(=O)(CCC(=O)NCO)OC` : call = ? inactive

Entry `Cc1cccc(N)c1` : call = ? inactive

Entry `CCCCN(CCCC)SN(C)C(=O)Oc1cccc2c1OC(C)(C)C2` : call = ? active

Entry O=P(OCC(Br)CBr)(OCC(Br)CBr)OCC(Br)CBr (stereo unspecified) : call = ? inactive

Entry CCOP(=S)(NC(C)C)Oc1ccccc1C(=O)OC(C)C (stereo unspecified) : call = ? inactive

Entry `OCC(F)(F)OC(F)(F)C(F)(F)OC(F)(F)CO` : call = ? inactive

Entry `CCCCc1ccccc1` : call = ? inactive

Source: PubChem BioAssay (EPA / NIEHS)
